Molecular target: T1, M3
T1 construct: also called PD1 mutant M3
Experiment: ELISA, 1 ug/ml

| binder | OD490 |
| --- | --- |
| PD1-52E8 (antibody, V domains shown, scFv-phage in the screening ELISA; whole IgG in the other assays) VH: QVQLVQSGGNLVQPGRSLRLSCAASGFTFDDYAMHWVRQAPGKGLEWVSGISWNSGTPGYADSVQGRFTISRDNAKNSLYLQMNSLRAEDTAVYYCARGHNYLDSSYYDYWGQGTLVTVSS VL: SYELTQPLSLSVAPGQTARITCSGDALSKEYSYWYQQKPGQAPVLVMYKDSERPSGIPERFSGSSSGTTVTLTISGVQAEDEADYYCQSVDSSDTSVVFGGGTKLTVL | 1.5 |
| PD1-49A2 (antibody, V domains shown, scFv-phage in the screening ELISA; whole IgG in the other assays; also called Parent 49A2) VH: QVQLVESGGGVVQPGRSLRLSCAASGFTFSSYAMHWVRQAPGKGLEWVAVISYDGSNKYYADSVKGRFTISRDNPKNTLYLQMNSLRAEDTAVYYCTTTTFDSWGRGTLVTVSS VL: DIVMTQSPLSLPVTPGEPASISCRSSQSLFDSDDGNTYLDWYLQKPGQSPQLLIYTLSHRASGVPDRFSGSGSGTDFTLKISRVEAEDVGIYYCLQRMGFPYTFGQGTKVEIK | 3.4 |
| PD1-41C9 (antibody, V domains shown, scFv-phage in the screening ELISA; whole IgG in the other assays) VH: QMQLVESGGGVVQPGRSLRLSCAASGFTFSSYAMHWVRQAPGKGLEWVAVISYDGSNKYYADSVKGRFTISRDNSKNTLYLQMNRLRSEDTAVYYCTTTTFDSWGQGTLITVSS VL: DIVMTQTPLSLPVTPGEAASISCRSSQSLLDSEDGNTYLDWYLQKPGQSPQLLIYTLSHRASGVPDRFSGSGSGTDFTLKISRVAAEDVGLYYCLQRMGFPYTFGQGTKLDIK | 2.3 |
| PD1-45D6 (antibody, V domains shown, scFv-phage in the screening ELISA; whole IgG in the other assays) VH: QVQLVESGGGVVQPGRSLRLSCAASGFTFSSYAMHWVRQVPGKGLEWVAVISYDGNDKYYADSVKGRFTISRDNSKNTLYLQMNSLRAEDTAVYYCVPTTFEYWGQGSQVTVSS VL: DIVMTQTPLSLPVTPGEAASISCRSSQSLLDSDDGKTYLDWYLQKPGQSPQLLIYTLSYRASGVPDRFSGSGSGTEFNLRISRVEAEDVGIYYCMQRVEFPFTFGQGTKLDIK | 3.8 |
